Origin of measurements: ChEMBL document CHEMBL3217649

# Test: Inhibition of type 2 alpha-glucosidase in rat small intestine using maltose as substrate after 10 mins by microplate reader analysis
Quantity Name: IC50

Value of measured IC50 for the entry CCCCN(CCCC)[C@@H]1C[C@@H](O)[C@H](O)[C@@H](O)[C@H]1O : 7.6 µM

Notebook: CCCCN[C@H]1C[C@@H](O)[C@H](O)[C@@H](O)[C@H]1O , IC50 read as 290 µM

The recorded IC50 for CCCCN(CCCC)[C@H]1C[C@@H](O)[C@H](O)[C@@H](O)[C@H]1O is 24 µM

Reported IC50 of CCCCCCN[C@@H]1C[C@@H](O)[C@H](O)[C@@H](O)[C@H]1O : 0.24 µM

Per the record, CCCCCCCCCCN[C@H]1C[C@@H](O)[C@H](O)[C@@H](O)[C@H]1O has IC50 of 2 µM

----------
# Test: Inhibition of type 2 alpha-glucosidase in rat small intestine using maltose as substrate after 10 mins by microplate reader analysis
Measured pIC50 values are reported for all entries that follow.
Please treat pIC50 as minus the base-10 logarithm of the molar concentration.

Solved cases below.
smiles_entry=CCCCCCCCCCCCN[C@H]1C[C@@H](O)[C@H](O)[C@@H](O)[C@H]1O test_value=5.72
smiles_entry=CCCCCCCCCCCC(=O)N[C@H]1C[C@@H](O)[C@H](O)[C@@H](O)[C@H]1O test_value=5.00
smiles_entry=CCN(CC)[C@@H]1C[C@@H](O)[C@H](O)[C@@H](O)[C@H]1O test_value=5.30
smiles_entry=CCN(CC)[C@H]1C[C@@H](O)[C@H](O)[C@@H](O)[C@H]1O test_value=4.68
smiles_entry=CC(=O)N[C@H]1C[C@@H](O)[C@H](O)[C@@H](O)[C@H]1O test_value=3.74

Switching to the query record.
Form field pIC50, entry CCCCCCCCCCCCN[C@@H]1C[C@@H](O)[C@H](O)[C@@H](O)[C@H]1O : 5.82

----------
# Measured On: Sucrase-isomaltase, intestinal (Rattus norvegicus)
# Sequence (P23739 1-1013 limits assumed): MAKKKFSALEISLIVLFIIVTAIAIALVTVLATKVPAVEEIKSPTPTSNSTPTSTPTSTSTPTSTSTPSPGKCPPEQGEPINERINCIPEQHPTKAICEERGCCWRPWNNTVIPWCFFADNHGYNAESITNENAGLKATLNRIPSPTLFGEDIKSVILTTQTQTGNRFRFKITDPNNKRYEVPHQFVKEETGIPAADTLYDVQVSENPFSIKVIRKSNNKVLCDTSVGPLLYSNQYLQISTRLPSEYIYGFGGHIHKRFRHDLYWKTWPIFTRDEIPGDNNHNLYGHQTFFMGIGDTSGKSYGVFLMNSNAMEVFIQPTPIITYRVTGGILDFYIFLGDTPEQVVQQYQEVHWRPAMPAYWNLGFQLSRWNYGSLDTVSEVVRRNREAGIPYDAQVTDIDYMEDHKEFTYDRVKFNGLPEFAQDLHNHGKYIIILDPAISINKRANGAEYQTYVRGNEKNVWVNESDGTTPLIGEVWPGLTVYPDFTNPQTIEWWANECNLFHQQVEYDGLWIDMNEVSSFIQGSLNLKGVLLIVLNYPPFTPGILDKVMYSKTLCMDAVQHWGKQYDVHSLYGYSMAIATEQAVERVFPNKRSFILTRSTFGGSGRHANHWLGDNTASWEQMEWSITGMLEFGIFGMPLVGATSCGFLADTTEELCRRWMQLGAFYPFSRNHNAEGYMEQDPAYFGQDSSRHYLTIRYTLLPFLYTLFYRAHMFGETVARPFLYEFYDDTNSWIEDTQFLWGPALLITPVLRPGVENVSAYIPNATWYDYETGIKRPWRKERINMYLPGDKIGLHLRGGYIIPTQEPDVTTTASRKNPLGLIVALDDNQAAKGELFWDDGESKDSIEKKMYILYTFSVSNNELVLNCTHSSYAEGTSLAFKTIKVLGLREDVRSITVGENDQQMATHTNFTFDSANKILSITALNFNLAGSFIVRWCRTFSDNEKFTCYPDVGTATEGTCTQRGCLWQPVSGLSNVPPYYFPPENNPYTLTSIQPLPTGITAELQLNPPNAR
# Sequence (P23739 1014-1841 limits assumed): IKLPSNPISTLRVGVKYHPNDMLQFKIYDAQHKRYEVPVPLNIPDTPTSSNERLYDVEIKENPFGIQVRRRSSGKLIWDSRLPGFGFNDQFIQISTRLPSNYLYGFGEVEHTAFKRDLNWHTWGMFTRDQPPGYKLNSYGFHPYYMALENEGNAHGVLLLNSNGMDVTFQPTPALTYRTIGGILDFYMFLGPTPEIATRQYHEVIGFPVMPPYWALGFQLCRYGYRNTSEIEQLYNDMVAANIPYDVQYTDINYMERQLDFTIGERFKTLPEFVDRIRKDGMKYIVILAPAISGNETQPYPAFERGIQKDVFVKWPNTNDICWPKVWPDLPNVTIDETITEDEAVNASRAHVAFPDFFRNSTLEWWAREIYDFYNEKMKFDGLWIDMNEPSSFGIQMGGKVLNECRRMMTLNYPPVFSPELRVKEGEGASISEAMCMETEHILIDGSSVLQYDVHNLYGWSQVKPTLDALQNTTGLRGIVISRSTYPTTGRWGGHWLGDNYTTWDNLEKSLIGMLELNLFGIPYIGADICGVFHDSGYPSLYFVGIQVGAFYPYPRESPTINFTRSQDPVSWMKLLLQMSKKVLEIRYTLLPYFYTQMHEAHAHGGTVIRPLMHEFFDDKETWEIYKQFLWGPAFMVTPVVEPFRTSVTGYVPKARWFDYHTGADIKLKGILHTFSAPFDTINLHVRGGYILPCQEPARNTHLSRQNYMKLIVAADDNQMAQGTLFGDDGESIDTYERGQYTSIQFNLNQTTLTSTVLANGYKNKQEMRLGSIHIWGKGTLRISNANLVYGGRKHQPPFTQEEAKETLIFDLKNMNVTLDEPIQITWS
Recorded IC50 values for a group of compounds are listed next.
Report the value in µM with no unit label.

smiles_entry=CCCCCCCCCCN[C@H]1C[C@@H](O)[C@H](O)[C@@H](O)[C@H]1O test_value=410

Known value: Sucrase-isomaltase, intestinal (Rattus norvegicus) IC50 of the compound CCCCN(CCCC)[C@H]1C[C@@H](O)[C@H](O)[C@@H](O)[C@H]1O equals 36

For CCN(CC)[C@H]1C[C@@H](O)[C@H](O)[C@@H](O)[C@H]1O on Sucrase-isomaltase, intestinal (Rattus norvegicus), measured IC50 was 360

Result for CC(=O)N[C@@H]1C[C@@H](O)[C@H](O)[C@@H](O)[C@H]1O , tested on Sucrase-isomaltase, intestinal (Rattus norvegicus), IC50: 5.3

----------
Each entry below carries its recorded IC50.
# Test: Inhibition of baker's yeast type 1 alpha-glucosidase using p-nitrophenyl-alpha-D-glucopyranoside as substrate incubated for 10 mins prior to substrate challenge for 20 mins by microplate reader analysis
# Parameters: species or system Saccharomyces cerevisiae
Quick reminder: number only, in µM, skip the unit.

response.value for C[C@H]1O[C@H](O[C@H]2[C@H](O)[C@@H](O)[C@@H](O[C@H]3[C@H](O)[C@@H](O)C(O)O[C@@H]3CO)O[C@@H]2CO)[C@H](O)[C@@H](O)[C@@H]1N[C@H]1C=C(CO)[C@@H](O)[C@H](O)[C@H]1O (stereo partly specified) (field: IC50) = 480

The compound listed as CCCCN[C@@H]1C[C@@H](O)[C@H](O)[C@@H](O)[C@H]1O shows IC50 equal to 1200

Entry under test: CCN(CC)[C@H]1C[C@@H](O)[C@H](O)[C@@H](O)[C@H]1O . Its IC50 was 1600

Form field IC50, entry CC(=O)N[C@@H]1C[C@@H](O)[C@H](O)[C@@H](O)[C@H]1O : 150

Given item CCCCCC(=O)N[C@@H]1C[C@@H](O)[C@H](O)[C@@H](O)[C@H]1O , the value recorded as its IC50 is 1700

Given item CCCCCCN[C@@H]1C[C@@H](O)[C@H](O)[C@@H](O)[C@H]1O , the value recorded as its IC50 is 400

----------
# Test: Inhibition of baker's yeast type 1 alpha-glucosidase using p-nitrophenyl-alpha-D-glucopyranoside as substrate incubated for 10 mins prior to substrate challenge for 20 mins by microplate reader analysis
# Parameters: species or system Saccharomyces cerevisiae
# reported IC50; entries follow
// note: answer is a bare numeric in mM

smiles_entry=CCCCN(CCCC)[C@@H]1C[C@@H](O)[C@H](O)[C@@H](O)[C@H]1O test_value=1.8
smiles_entry=CC(=O)N[C@H]1C[C@@H](O)[C@H](O)[C@@H](O)[C@H]1O test_value=0.27
smiles_entry=CCN(CC)[C@@H]1C[C@@H](O)[C@H](O)[C@@H](O)[C@H]1O test_value=1.6
smiles_entry=CCCCN(CCCC)[C@H]1C[C@@H](O)[C@H](O)[C@@H](O)[C@H]1O test_value=2.3

Let us examine a further case.
The value of IC50 measured for the molecule CCCC(=O)N[C@@H]1C[C@@H](O)[C@H](O)[C@@H](O)[C@H]1O turned out to be 1.2

----------
# Test: Inhibition of type 2 alpha-glucosidase in rat small intestine using maltose as substrate after 10 mins by microplate reader analysis
The following compounds are shown together with reported IC50 values.
Please give the number followed by its unit.

compound=CCCCCC(=O)N[C@H]1C[C@@H](O)[C@H](O)[C@@H](O)[C@H]1O quantity_name=IC50 test_value="4.2 µM"

Memo: CCCCCCCCCCCC(=O)N[C@@H]1C[C@@H](O)[C@H](O)[C@@H](O)[C@H]1O , reported IC50: 7.4 µM

Record summary for CC(=O)N[C@@H]1C[C@@H](O)[C@H](O)[C@@H](O)[C@H]1O : reported IC50 = 5.3 µM

According to the records, this compound C[C@H]1O[C@H](O[C@H]2[C@H](O)[C@@H](O)[C@@H](O[C@H]3[C@H](O)[C@@H](O)C(O)O[C@@H]3CO)O[C@@H]2CO)[C@H](O)[C@@H](O)[C@@H]1N[C@H]1C=C(CO)[C@@H](O)[C@H](O)[C@H]1O (stereo not given in full) [ACARBOSE] displays IC50 of 1.5 µM

----------
# Test: Inhibition of type 2 alpha-glucosidase in rat small intestine using maltose as substrate after 10 mins by microplate reader analysis
We begin with a simple list: items and their reported IC50.
All answers are understood in nM, so give the number only.

Below, 3 compounds whose answers are already recorded.
smiles_entry=CCCCCCCCCCN[C@@H]1C[C@@H](O)[C@H](O)[C@@H](O)[C@H]1O test_value=410
smiles_entry=CCCCN[C@@H]1C[C@@H](O)[C@H](O)[C@@H](O)[C@H]1O test_value=57000
smiles_entry=CCCCCCN[C@H]1C[C@@H](O)[C@H](O)[C@@H](O)[C@H]1O test_value=2500

Turning now to a further record.
Form field IC50, entry CCCCCCCCCC(=O)N[C@H]1C[C@@H](O)[C@H](O)[C@@H](O)[C@H]1O : 2000

----------
# Test: Inhibition of type 2 alpha-glucosidase in rat small intestine using maltose as substrate after 10 mins by microplate reader analysis
pIC50: −log10 of the molar value.
Outcome: condition met for pIC50 of at least 5; condition not met for anything lower.

Worked cases, answers included:
smiles_entry=CCCC(=O)N[C@@H]1C[C@@H](O)[C@H](O)[C@@H](O)[C@H]1O discrete_label="condition not met"
smiles_entry=CCCCCCN(CCCCCC)[C@@H]1C[C@@H](O)[C@H](O)[C@@H](O)[C@H]1O discrete_label="condition not met"
smiles_entry=CCCCCCN(CCCCCC)[C@H]1C[C@@H](O)[C@H](O)[C@@H](O)[C@H]1O discrete_label="condition not met"
smiles_entry=CCCCCC(=O)N[C@@H]1C[C@@H](O)[C@H](O)[C@@H](O)[C@H]1O discrete_label="condition met"
smiles_entry=CCCCCCCCCC(=O)N[C@@H]1C[C@@H](O)[C@H](O)[C@@H](O)[C@H]1O discrete_label="condition met"

Problem: Kindly determine if pIC50 recorded for CCCC(=O)N[C@H]1C[C@@H](O)[C@H](O)[C@@H](O)[C@H]1O is above or exactly 5.
Result: condition not met
